// provenance: patent US20180215734A1

TARGET OR SYSTEM: Tie2(h) (Homo sapiens, UniProt Q02763)
Sequence (Q02763 23-1124): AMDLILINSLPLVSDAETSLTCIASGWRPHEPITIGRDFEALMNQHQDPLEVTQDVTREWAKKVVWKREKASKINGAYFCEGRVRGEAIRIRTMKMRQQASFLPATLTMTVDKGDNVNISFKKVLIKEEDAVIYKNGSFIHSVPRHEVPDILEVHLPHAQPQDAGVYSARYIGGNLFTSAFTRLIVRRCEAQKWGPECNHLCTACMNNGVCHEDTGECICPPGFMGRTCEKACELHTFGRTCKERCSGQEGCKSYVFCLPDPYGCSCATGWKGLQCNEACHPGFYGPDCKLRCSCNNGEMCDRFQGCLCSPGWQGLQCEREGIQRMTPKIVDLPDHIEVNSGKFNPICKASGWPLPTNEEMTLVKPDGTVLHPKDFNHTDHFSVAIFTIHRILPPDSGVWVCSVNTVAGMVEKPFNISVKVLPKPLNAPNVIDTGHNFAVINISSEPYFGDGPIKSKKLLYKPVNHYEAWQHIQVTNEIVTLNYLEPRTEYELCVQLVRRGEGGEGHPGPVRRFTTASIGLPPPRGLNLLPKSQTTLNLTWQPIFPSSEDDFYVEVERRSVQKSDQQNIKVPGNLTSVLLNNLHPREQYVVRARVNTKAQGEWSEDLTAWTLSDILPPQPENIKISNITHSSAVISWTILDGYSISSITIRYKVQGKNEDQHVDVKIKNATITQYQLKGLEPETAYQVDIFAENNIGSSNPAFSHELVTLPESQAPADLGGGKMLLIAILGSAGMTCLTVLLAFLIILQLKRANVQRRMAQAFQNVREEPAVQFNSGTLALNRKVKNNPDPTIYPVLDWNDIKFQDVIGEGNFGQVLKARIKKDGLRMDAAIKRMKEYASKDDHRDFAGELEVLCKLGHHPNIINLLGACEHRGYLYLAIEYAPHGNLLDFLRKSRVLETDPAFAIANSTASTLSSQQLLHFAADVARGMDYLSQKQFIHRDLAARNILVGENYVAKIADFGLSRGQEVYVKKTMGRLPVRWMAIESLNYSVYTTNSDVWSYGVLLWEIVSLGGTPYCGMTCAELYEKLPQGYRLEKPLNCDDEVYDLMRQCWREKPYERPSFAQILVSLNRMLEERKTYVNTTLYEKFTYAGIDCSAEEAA
QUANTITY NAME: IC50

Query string: Quick one: IC50 of Cc1cc2c(F)c(Oc3ncnc(Nc4ccc(N5C[C@@H](C)N[C@@H](C)C5)cc4)c3C#N)cc(F)c2[nH]1 [Compound 19] ?
Result string: > 1 µM

----------
TARGET OR SYSTEM: FGFR2(N549H)(h) (Homo sapiens, UniProt P21802, N549H)
Sequence (P21802 22-821 N549H): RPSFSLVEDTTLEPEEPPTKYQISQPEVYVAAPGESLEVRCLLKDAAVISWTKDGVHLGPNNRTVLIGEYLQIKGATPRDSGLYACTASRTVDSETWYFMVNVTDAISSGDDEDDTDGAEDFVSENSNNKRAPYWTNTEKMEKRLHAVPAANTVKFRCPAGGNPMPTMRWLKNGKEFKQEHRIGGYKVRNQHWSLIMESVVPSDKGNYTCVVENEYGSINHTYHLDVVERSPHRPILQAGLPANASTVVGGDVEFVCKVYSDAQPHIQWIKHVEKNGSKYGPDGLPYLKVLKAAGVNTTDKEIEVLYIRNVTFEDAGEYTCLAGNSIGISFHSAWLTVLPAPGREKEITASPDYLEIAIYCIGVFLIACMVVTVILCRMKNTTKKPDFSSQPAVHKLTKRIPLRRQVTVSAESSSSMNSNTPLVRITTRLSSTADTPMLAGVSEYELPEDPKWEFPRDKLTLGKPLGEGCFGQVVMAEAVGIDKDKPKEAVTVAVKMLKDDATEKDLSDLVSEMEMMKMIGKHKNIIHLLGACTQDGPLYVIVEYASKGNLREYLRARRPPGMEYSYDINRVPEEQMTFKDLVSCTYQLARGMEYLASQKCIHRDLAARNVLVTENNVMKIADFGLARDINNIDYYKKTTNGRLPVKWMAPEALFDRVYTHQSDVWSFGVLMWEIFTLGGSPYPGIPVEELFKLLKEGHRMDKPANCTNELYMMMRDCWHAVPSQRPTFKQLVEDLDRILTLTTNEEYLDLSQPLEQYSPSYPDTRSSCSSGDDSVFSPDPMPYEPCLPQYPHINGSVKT
EXPERIMENTAL PROTOCOL: Kinase assay, FGFR2(N549H)(h)
Assay type: biochemical
QUANTITY NAME: IC50 (nM)
One number for each entry, in nM.

Query string: Give IC50 (FGFR2(N549H)(h) (Homo sapiens, UniProt P21802, N549H)) of the following compound: "Cc1cc2c(F)c(Oc3ncnc(Nc4ccc(N5C[C@@H](C)N[C@@H](C)C5)cc4)c3C#N)cc(F)c2[nH]1"
Result string: 7
